Target: Dihydrofolate reductase (Homo sapiens)
Sequence (P00374 whole entry): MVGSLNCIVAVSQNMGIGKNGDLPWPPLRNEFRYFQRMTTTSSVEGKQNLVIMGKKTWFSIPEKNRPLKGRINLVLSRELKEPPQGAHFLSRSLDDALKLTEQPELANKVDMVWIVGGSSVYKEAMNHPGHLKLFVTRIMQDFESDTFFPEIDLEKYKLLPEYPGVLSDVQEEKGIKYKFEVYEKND
Parameter pKi: see the listing below.
The read-out pKi is expressed as -log10 of concentration in moles per litre.

Known results for compounds:
COc1cc2nc(-c3ccccn3)n(-c3ccc4c(N)nc(N)nc4c3)c2cc1OC; 6.08
Cc1cc2nc(C3CCCO3)n(-c3ccc4c(N)nc(N)nc4c3)c2cc1C (stereo not given); 6.13
Cc1cc2ncn(-c3ccc4c(N)nc(N)nc4c3)c2cc1C; 5.79
Cc1cc2nc(-c3ccoc3)n(-c3ccc4c(N)nc(N)nc4c3)c2cc1C; 6.14
Cc1cc2nc(-c3cncn3C)n(-c3ccc4c(N)nc(N)nc4c3)c2cc1C; 5.53

# input Please state recorded pKi (tested on Dihydrofolate reductase (Homo sapiens)) of COc1ccc(-c2nc3cc(C)c(C)cc3n2-c2ccc3c(N)nc(N)nc3c2)cc1
# output 5.64

# input Please state recorded pKi (tested on Dihydrofolate reductase (Homo sapiens)) of Cc1cc2nc(-c3ccco3)n(-c3ccc4c(N)nc(N)nc4c3)c2cc1C
# output 6.03
